Biological target: Sodium-dependent dopamine transporter (Homo sapiens, UniProt Q01959)
Sequence (Q01959 whole entry): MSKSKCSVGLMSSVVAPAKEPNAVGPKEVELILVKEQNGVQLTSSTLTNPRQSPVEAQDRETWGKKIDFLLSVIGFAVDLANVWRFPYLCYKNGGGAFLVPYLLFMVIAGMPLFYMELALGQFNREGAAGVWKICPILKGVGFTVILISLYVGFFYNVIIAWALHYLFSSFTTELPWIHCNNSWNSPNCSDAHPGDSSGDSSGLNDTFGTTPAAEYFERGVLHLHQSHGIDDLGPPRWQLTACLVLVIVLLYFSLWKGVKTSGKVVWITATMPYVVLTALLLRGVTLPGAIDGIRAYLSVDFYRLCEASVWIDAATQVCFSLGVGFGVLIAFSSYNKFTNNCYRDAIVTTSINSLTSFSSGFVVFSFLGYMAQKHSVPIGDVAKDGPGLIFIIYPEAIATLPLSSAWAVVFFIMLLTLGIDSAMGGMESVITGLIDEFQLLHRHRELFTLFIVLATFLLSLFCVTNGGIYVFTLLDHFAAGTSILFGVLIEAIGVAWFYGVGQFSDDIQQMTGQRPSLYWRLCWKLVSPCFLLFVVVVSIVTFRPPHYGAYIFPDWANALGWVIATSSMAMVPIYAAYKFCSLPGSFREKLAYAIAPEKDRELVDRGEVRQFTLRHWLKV
Assay: Inhibition of dopamine uptake at human DAT expressed in HEK cells
Measured IC50 by item

Smiles Notation	System Under Test	IC50
CNC[C@H]1CSc2ccccc2[C@@H]1Oc1ccccc1C	Sodium-dependent dopamine transporter (Homo sapiens, UniProt Q01959)	7.5 µM
Cc1ccccc1O[C@H]1c2ccccc2OC[C@H]1CN(C)C	Sodium-dependent dopamine transporter (Homo sapiens, UniProt Q01959)	> 10 µM
CNC[C@@H]1OCc2ccccc2[C@@H]1Oc1ccc(F)cc1C	Sodium-dependent dopamine transporter (Homo sapiens, UniProt Q01959)	> 10 µM
CNC[C@@H]1Cc2ccccc2[C@@H]1Oc1ccc(C(F)(F)F)cc1	Sodium-dependent dopamine transporter (Homo sapiens, UniProt Q01959)	> 10 µM
CCOc1ccccc1O[C@H]1c2ccccc2CO[C@@H]1CNC	Sodium-dependent dopamine transporter (Homo sapiens, UniProt Q01959)	> 10 µM
CCc1cccc(F)c1O[C@H]1c2ccccc2CO[C@H]1CNC	Sodium-dependent dopamine transporter (Homo sapiens, UniProt Q01959)	> 10 µM
CNC[C@@H]1CSc2ccccc2[C@@H]1Oc1ccccc1Cl	Sodium-dependent dopamine transporter (Homo sapiens, UniProt Q01959)	> 10 µM
CNC[C@H]1Cc2ccccc2[C@@H]1Oc1cccc2ccccc12	Sodium-dependent dopamine transporter (Homo sapiens, UniProt Q01959)	4 µM
CNC[C@H]1OCc2ccccc2[C@@H]1Oc1ccccc1SC	Sodium-dependent dopamine transporter (Homo sapiens, UniProt Q01959)	4 µM
CNC[C@@H]1OCc2ccccc2[C@@H]1Oc1cc(F)ccc1C	Sodium-dependent dopamine transporter (Homo sapiens, UniProt Q01959)	> 10 µM
CNC[C@H]1Cc2ccccc2[C@@H]1Oc1ccccc1C	Sodium-dependent dopamine transporter (Homo sapiens, UniProt Q01959)	> 10 µM
